Molecular target: T1, recombinant VEGFR-2 protein (water soluble extracellular site of human VEGFR-2 with Fc of human IgG1 … (human, UniProt P35968 20-764))
T1 construct: extracellular domain; Bought; not shown: Fc of human IgG1
T1 sequence (P35968 20-764): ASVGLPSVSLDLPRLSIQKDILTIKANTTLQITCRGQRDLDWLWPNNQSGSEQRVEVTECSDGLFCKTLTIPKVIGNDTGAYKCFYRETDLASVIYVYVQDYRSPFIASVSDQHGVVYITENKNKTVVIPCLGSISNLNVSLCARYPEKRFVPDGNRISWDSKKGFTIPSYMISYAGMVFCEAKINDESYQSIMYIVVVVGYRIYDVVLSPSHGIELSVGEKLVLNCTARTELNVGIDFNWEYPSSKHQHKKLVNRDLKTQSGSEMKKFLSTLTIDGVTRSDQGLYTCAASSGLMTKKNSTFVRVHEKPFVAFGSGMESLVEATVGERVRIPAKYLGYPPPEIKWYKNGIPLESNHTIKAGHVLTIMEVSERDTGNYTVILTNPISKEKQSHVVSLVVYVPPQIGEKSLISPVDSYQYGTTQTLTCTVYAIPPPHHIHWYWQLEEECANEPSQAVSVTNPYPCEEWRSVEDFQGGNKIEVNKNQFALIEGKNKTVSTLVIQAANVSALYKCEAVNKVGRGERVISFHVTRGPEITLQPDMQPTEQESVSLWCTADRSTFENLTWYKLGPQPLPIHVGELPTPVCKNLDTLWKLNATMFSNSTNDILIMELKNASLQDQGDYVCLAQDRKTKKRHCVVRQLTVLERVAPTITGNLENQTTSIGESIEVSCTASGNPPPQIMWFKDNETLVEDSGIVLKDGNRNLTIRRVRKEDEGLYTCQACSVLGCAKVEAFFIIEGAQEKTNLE
Assay: competitive ELISA; synergibody titrated with 1 nM VEGFR-2 on coated VEGF 165
Description: Competitive ELISA is performed using the peptides synthesized above in Section 6A in order to assess the molecular interaction of the binders. […] Then the plate is washed five times with PBS containing 0.1% Tween-20, and blocked at room temperature for two hours with PBS containing 5% BSA. […] The reaction is stopped by adding 50 μl of 5N H₂SO₄ solution, and the OD₄₅₀ value is read on a plate reader (Molecular Devices). […]
recorded metric: pIC50
// returns pIC50 (minus log10 of molar concentration), number only

Indicate its recorded pIC50; the binder in question is Syn-Ang-VEGFR-13 (other, Chimeric (human IgG1) SAITAng-2-3 with the peptide at the C-terminus of the heavy chain; also called SAITAng-2-3 x DTN9VEGFR-2-3; not shown: human IgG1 heavy chain constant region with Fc region, from the vector; human light chain constant region, printed as 'constant region of human IgG1') heavy (part 1 of 2): DVQLVESGGGLVQPGGSRKLSCAASGFTFSSFGMHWVRQAPEKGLEWVAYISSDSSTIYYADTVKGRFTISRDNPKNTLFLQMTSLRSEDTAMYYCAREGGYDDYYAMDYWGQGTSVTVSS heavy (part 2 of 2): EAGAYWCKAWGLSPCLVT light: DIQMTQSPASQSASLGESVTITCLASQTIGTWLAWYQQKPGKSPQLLIYAATSLADGVPSRFSGSGSGTKFSFKISSLQAEDFVSYYCQQLYSIPLTFGGGTKLEIK
9.04

Indicate its recorded pIC50; the binder in question is Syn-Ang-VEGFR-7 (other, Chimeric (human IgG1) SAITAng-2-2 with the peptide at the C-terminus of the heavy chain; also called SAITAng-2-2 x DTN8VEGFR-2-2; not shown: human IgG1 heavy chain constant region with Fc region, from the vector; human light chain constant region, printed as 'constant region of human IgG1') heavy (part 1 of 2): QVQLQQSGPELVKPGASVKMSCKASGYTFTDYVISWVKQRTGQGLEWIGEIYPGSGSTYYNEKFKGKASLTADKSSNTAYMQLSSLTSADSAVYFCVRSRGDYYAMDYWGQGTSVTVSS heavy (part 2 of 2): EAGKETCGYEWQYCPRP light: DIQMTQSPSSLSASLGGKVTITCKASQDINNYITWYQHKPGKGPRLLIHYTSTLQPGIPSRFSGSGSGRDYSFSISNLEPEDIATYYCLQYDNLLTFGGGTKLEIK
8.75

Indicate its recorded pIC50; the binder in question is Syn-Ang-VEGFR-10 (other, Chimeric (human IgG1) SAITAng-2-2 with the peptide at the C-terminus of the heavy chain; also called SAITAng-2-2 x DTN11VEGFR-2-5; not shown: human IgG1 heavy chain constant region with Fc region, from the vector; human light chain constant region, printed as 'constant region of human IgG1') heavy (part 1 of 2): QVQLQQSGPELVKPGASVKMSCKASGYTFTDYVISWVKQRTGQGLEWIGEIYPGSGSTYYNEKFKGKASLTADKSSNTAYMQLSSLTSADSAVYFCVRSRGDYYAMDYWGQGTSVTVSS heavy (part 2 of 2): PGSQGYCHLNMRYQWICDSE light: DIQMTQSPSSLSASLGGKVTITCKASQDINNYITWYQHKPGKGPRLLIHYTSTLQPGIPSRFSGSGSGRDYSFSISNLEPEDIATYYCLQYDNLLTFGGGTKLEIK
8.67

Indicate its recorded pIC50; the binder in question is Syn-Ang-VEGFR-17 (other, Chimeric (human IgG1) SAITAng-2-4 with the peptide at the C-terminus of the heavy chain; also called SAITAng-2-4 x DTN8VEGFR-2-2; not shown: human IgG1 heavy chain constant region with Fc region, from the vector; human light chain constant region, printed as 'constant region of human IgG1') heavy (part 1 of 2): QVQLQQSGAELARPGASVKLSCKASGYTFTDYYINWAKQRTGQGLEWIGEIYPGSGDTYYNEKFKGKATLTADKSSSTAYMQLSSLTSEDSAVYFCARYGYKGVYFDYWGQSTTLTVSS heavy (part 2 of 2): EAGKETCGYEWQYCPRP light: ENVLTQSPAIMAASLGQKVTMTCSASSSVSSSYLHWYQQKSGASPKPLIHRTSNLASGVPARFSGSGSGTSYSLTISSVEAEDDATYYCQQWSGYPFTFGAGTKLELK
8.98

Data origin, for the record: patent US20110076723A1
